Tested on: 521955-158-R2-J5-PDC complex spheroids, viability
Test: Anticancer human tumor 521955-158-R2-J5-PDC patient-derived pancreatic carcinoma cell line growth inhibition [RAS]
Details: second compound 0.003 µM; first compound 3.16 µM; stronger effect = lower value
observed_property: viability, T/C (%)
Provide only the numeric value, understood in %.

INSERT INTO results (compound, observed_property, observed_result) VALUES
  ('NC1c2ccccc2OC12CCN(c1cnc3c(N4CCCc5ncccc54)n[nH]c3n1)CC2 (centres undefined) + CCn1c(-c2cccnc2C(C)OC)c2c3cc(ccc31)N1CCOC(CC(NC(=O)C(C(C)C)N(C)C(=O)C3(F)CCN(C(=O)C#CC(C)(C)N(C)C)CC3)C(=O)N3CCCC(N3)C(=O)OCC(C)(C)C2)C1', 'viability, T/C', 52.7),
  ('CC(C)NCC(C(=O)N1CCN(c2ncnc3c2C(C)CC3O)CC1)c1ccc(Cl)cc1 (centres undefined) + CCn1c(-c2cccnc2C(C)OC)c2c3cc(ccc31)N1CCOC(CC(NC(=O)C(C(C)C)N(C)C(=O)C3(F)CCN(C(=O)C#CC(C)(C)N(C)C)CC3)C(=O)N3CCCC(N3)C(=O)OCC(C)(C)C2)C1', 'viability, T/C', 62.4),
  ('CC(=O)OC12COC1CC(O)C1(C)C(=O)C(O)C3=C(C)C(OC(=O)C(O)C(NC(=O)OC(C)(C)C)c4ccccc4)CC(O)(C(OC(=O)c4ccccc4)C21)C3(C)C (centres undefined) + CCn1c(-c2cc(N3CCN(C)CC3)cnc2C(C)OC)c2c3cc(ccc31)-c1csc(n1)CC(NC(=O)C1CC1C)C(=O)N1CCCC(N1)C(=O)OCC(C)(C)C2', 'viability, T/C', 23.7);

The record that follows has no viability, T/C shown yet.
Recorded viability, T/C of NC1c2ccccc2OC12CCN(c1cnc3c(N4CCCc5ncccc54)n[nH]c3n1)CC2 (centres undefined) + CCn1c(-c2cc(N3CCN(C)CC3)cnc2C(C)OC)c2c3cc(ccc31)-c1csc(n1)CC(NC(=O)C1CC1C)C(=O)N1CCCC(N1)C(=O)OCC(C)(C)C2 , please. 13.3

---

Tested on: 521955-158-R2-J5-PDC complex spheroids, viability
Assay: Anticancer human tumor 521955-158-R2-J5-PDC cell line growth inhibition [RAS]; active = viability on the fitted dose curve at most 10% of control; inactive = the rest;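 further: spheroids also contain HUVEC endothelial cells and mesenchymal stem cells as stroma; compound exposure lasted seven days before the viability read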
Details: second compound 0.316 µM; first compound 0.0949 µM
From the text: RAS pathway inhibitors in Combinations in Complex Spheroids A high-throughput screen of multi-cell type tumor spheroids was designed to identify active combinations of RAS pathway inhibitors and targeted small molecules. Complex spheroids include a stromal component modeled by human endothelial cells (HUVEC) and fibroblasts modeled by human mesenchymal stem cells (MSCs). […] Compounds. […] If the clinical Cmax for an agent had not been determined, the highest concentration tested was 10 microM. […]
Result category, one only: active, inactive

A selection of reference data follows.
INSERT INTO assay_data (compound, label) VALUES
  ('CC1(C)CCC(Nc2ncc(C(F)(F)F)c(-c3c[nH]c4c(P(C)(C)=O)c(C#N)ccc34)n2)CN1 (centres undefined) + C=CC(=O)N1CCN(c2nc(OCC3CCCN3C)nc3c(F)c(-c4nc(N)cc(C)c4C(F)(F)F)c(Cl)cc23)C(C)C1', 'inactive'),
  ('CCc1c2c(nc3ccc(O)cc13)-c1cc3c(c(=O)n1C2)COC(=O)[C@]3(O)CC + C#Cc1c(F)ccc2cc(O)cc(-c3ncc4c(N5CC6CCC(C5)N6)nc(OCC56CCCN5CC(F)C6)nc4c3F)c12', 'inactive'),
  ('CCc1c2c(nc3ccc(O)cc13)-c1cc3c(c(=O)n1C2)COC(=O)[C@]3(O)CC + C=CC(=O)N1CCN(c2nc(OCC3CCCN3C)nc3c(F)c(-c4nc(N)cc(C)c4C(F)(F)F)c(Cl)cc23)C(C)C1', 'active');

Lab log entry: CC1(C)CCC(Nc2ncc(C(F)(F)F)c(-c3c[nH]c4c(P(C)(C)=O)c(C#N)ccc34)n2)CN1 (centres undefined) + C#Cc1c(F)ccc2cc(O)cc(-c3ncc4c(N5CC6CCC(C5)N6)nc(OCC56CCCN5CC(F)C6)nc4c3F)c12 — outcome as called in the assay? inactive

---

System: 521955-158-R2-J5-PDC complex spheroids, viability
Test: Anticancer human tumor 521955-158-R2-J5-PDC cell line growth inhibition [RAS]; active = viability on the fitted dose curve at most 10% of control; inactive = the rest;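 further: spheroids also contain HUVEC endothelial cells and mesenchymal stem cells as stroma; compound exposure lasted seven days before the viability read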
Settings: second compound 0.3 µM; first compound 0.00316 µM
Reply using exactly one outcome from 1 (yes) for active, 0 (no) for inactive

The following compounds have reported results that may help.
INSERT INTO assay_data (compound, label) VALUES
  ('Nc1ccn(C2OC(CO)C(O)C2(F)F)c(=O)n1 (centres undefined) + CCn1c(-c2cc(N3CCN(C)CC3)cnc2C(C)OC)c2c3cc(ccc31)-c1csc(n1)CC(NC(=O)C1CC1C)C(=O)N1CCCC(N1)C(=O)OCC(C)(C)C2', '0 (no)'),
  ('CCN1CCN(Cc2ccc(Nc3ncc(F)c(-c4cc(F)c5nc(C)n(C(C)C)c5c4)n3)nc2)CC1 + CCn1c(-c2cc(N3CCN(C)CC3)cnc2C(C)OC)c2c3cc(ccc31)-c1csc(n1)CC(NC(=O)C1CC1C)C(=O)N1CCCC(N1)C(=O)OCC(C)(C)C2', '0 (no)'),
  ('Nc1ccn(C2OC(CO)C(O)C2(F)F)c(=O)n1 (centres undefined) + CCn1c(-c2cccnc2C(C)OC)c2c3cc(ccc31)N1CCOC(CC(NC(=O)C(C(C)C)N(C)C(=O)C3(F)CCN(C(=O)C#CC(C)(C)N(C)C)CC3)C(=O)N3CCCC(N3)C(=O)OCC(C)(C)C2)C1', '0 (no)');

Below: the item to evaluate.
Assay result, entry CC(C)n1nc(-c2ccc3oc(N)nc3c2)c2c(N)ncnc21 + CCn1c(-c2cc(N3CCN(C)CC3)cnc2C(C)OC)c2c3cc(ccc31)-c1csc(n1)CC(NC(=O)C1CC1C)C(=O)N1CCCC(N1)C(=O)OCC(C)(C)C2 — outcome? 1 (yes)

---

Tested on: 521955-158-R2-J5-PDC complex spheroids, viability
Assay: Anticancer human tumor 521955-158-R2-J5-PDC cell line growth inhibition [RAS];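 further: spheroids also contain HUVEC endothelial cells and mesenchymal stem cells as stroma; compound exposure lasted seven days before the viability read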
Settings: second compound 3.16 µM; first compound 0.0316 µM; stronger effect = lower value
From the text: RAS pathway inhibitors in Combinations in Complex Spheroids A high-throughput screen of multi-cell type tumor spheroids was designed to identify active combinations of RAS pathway inhibitors and targeted small molecules. Complex spheroids include a stromal component modeled by human endothelial cells (HUVEC) and fibroblasts modeled by human mesenchymal stem cells (MSCs). […] Compounds. […] If the clinical Cmax for an agent had not been determined, the highest concentration tested was 10 microM. […]
Labels assigned by viability, T/C range: lo = under 30%, mid = from 30% up to 50%, hi = 50% and over

INSERT INTO measurements (compound, label) VALUES
  ('CC(Nc1ccc2c(c1)OCCn1cc(N3C(=O)OCC3C(F)F)nc1-2)C(N)=O (centres undefined) + C#Cc1c(F)ccc2cc(O)cc(-c3ncc4c(N5CC6CCC(C5)N6)nc(OCC56CCCN5CC(F)C6)nc4c3F)c12', 'mid'),
  ('CC(C)n1nc(-c2ccc3oc(N)nc3c2)c2c(N)ncnc21 + C#Cc1c(F)ccc2cc(O)cc(-c3ncc4c(N5CC6CCC(C5)N6)nc(OCC56CCCN5CC(F)C6)nc4c3F)c12', 'lo'),
  ('C=CC(=O)N1CCN(c2nc(OCC3CCCN3C)nc3c(F)c(-c4nc(N)cc(C)c4C(F)(F)F)c(Cl)cc23)C(C)C1 (centres undefined) + C#Cc1c(F)ccc2cc(O)cc(-c3ncc4c(N5CC6CCC(C5)N6)nc(OCC56CCCN5CC(F)C6)nc4c3F)c12', 'hi'),
  ('CC1(O)CCCC1n1c(=O)c(C(F)F)cc2cnc(NC3CCN(S(C)(=O)=O)CC3)nc21 (centres undefined) + C#Cc1c(F)ccc2cc(O)cc(-c3ncc4c(N5CC6CCC(C5)N6)nc(OCC56CCCN5CC(F)C6)nc4c3F)c12', 'mid'),
  ('NC1c2ccccc2OC12CCN(c1cnc3c(N4CCCc5ncccc54)n[nH]c3n1)CC2 (centres undefined) + C#Cc1c(F)ccc2cc(O)cc(-c3ncc4c(N5CC6CCC(C5)N6)nc(OCC56CCCN5CC(F)C6)nc4c3F)c12', 'mid'),
  ('Nc1ccn(C2OC(CO)C(O)C2(F)F)c(=O)n1 (centres undefined) + C#Cc1c(F)ccc2cc(O)cc(-c3ncc4c(N5CC6CCC(C5)N6)nc(OCC56CCCN5CC(F)C6)nc4c3F)c12', 'lo'),
  ('CC(=O)OC12COC1CC(O)C1(C)C(=O)C(O)C3=C(C)C(OC(=O)C(O)C(NC(=O)OC(C)(C)C)c4ccccc4)CC(O)(C(OC(=O)c4ccccc4)C21)C3(C)C (centres undefined) + C#Cc1c(F)ccc2cc(O)cc(-c3ncc4c(N5CC6CCC(C5)N6)nc(OCC56CCCN5CC(F)C6)nc4c3F)c12', 'lo'),
  ('CCN1CCN(Cc2ccc(Nc3ncc(F)c(-c4cc(F)c5nc(C)n(C(C)C)c5c4)n3)nc2)CC1 + C#Cc1c(F)ccc2cc(O)cc(-c3ncc4c(N5CC6CCC(C5)N6)nc(OCC56CCCN5CC(F)C6)nc4c3F)c12', 'mid');

Consider CCC(CC)c1cc(NC2CCC(N)C2)n2nccc2n1 (centres undefined) + C#Cc1c(F)ccc2cc(O)cc(-c3ncc4c(N5CC6CCC(C5)N6)nc(OCC56CCCN5CC(F)C6)nc4c3F)c12 . To which viability, T/C class does it belong? hi

Can you handle CC(C)NCC(C(=O)N1CCN(c2ncnc3c2C(C)CC3O)CC1)c1ccc(Cl)cc1 (centres undefined) + C#Cc1c(F)ccc2cc(O)cc(-c3ncc4c(N5CC6CCC(C5)N6)nc(OCC56CCCN5CC(F)C6)nc4c3F)c12 next? mid

Follow-up entry: Cc1nc(N2CCC3(CC2)COC(C)C3N)c(CO)nc1Sc1ccnc(N)c1Cl (centres undefined) + C#Cc1c(F)ccc2cc(O)cc(-c3ncc4c(N5CC6CCC(C5)N6)nc(OCC56CCCN5CC(F)C6)nc4c3F)c12 mid

Proceed to C=CC(=O)Nc1cc(Nc2nccc(-c3cn(C)c4ccccc34)n2)c(OC)cc1N(C)CCN(C)C + C#Cc1c(F)ccc2cc(O)cc(-c3ncc4c(N5CC6CCC(C5)N6)nc(OCC56CCCN5CC(F)C6)nc4c3F)c12 mid

Now give it for O=C(c1ccc(F)c(F)c1Nc1ccc(I)cc1F)N1CC(O)([C@@H]2CCCCN2)C1 + C#Cc1c(F)ccc2cc(O)cc(-c3ncc4c(N5CC6CCC(C5)N6)nc(OCC56CCCN5CC(F)C6)nc4c3F)c12 too. lo
